- Test system: A549
- protocol-notes: Cytotoxicity against human A549 cells after 72 hrs by sulforhodamine B assay
- Format: functional, cell-based
- assay-context: A549, 72 h
measured-metric: IC50

Below, each entry is followed by its recorded IC50 result.
{"molecule": "COc1ccc(-c2ccc3cc(O)ccc3c2)cc1OC", "IC50": "20 µM"}
{"molecule": "COc1ccc2cc(-c3ccc(OC(C)=O)c(COC(C)=O)c3)ccc2c1", "IC50": "> 20 µM"}
{"molecule": "COc1ccc2cc(-c3cccc(CO)c3)ccc2c1", "IC50": "> 20 µM"}
{"molecule": "O=C(O)c1ccc(-c2ccc3cc(O)ccc3c2)cc1O", "IC50": "15.3 µM"}

Log: A549, molecule `COC(=O)c1ccc(-c2ccc3cc(OC)ccc3c2)cc1` , IC50 = > 20 µM

Entry `COc1ccc2cc(-c3cccc(C(F)(F)F)c3)ccc2c1` , A549 data, IC50 value: > 20 µM

Form: item `COc1ccc2cc(-c3ccc(O)cc3)ccc2c1` ; test system A549; IC50: > 20 µM

Note to self: IC50 of `COc1ccc2cc(-c3ccc([N+](=O)[O-])c(C(F)(F)F)c3)ccc2c1` with A549 was > 20 µM

Reported A549 IC50 for item `O=C(O)Cc1cc(-c2ccc3cc(O)ccc3c2)ccc1O` was > 20 µM

GET /values?item= `COC(=O)c1ccc(-c2ccc3cc(OC)ccc3c2)cc1O` &system= A549 returns IC50: > 20 µM
